Biological target: FHIT (Homo sapiens)
Construct: GST (N, cleaved yes); made in house; host or cells: E. coli BL21 (DE3)
Sequence (P49789 whole entry): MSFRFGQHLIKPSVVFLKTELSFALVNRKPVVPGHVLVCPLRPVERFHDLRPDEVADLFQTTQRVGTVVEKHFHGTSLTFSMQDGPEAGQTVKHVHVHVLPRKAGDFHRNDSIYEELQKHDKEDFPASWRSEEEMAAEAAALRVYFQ
Assay: MST assay, purified Red-NHS labeled FHIT
Format: binding
Settings: FHIT purified from E.coli, Red-NHS labeled, MST
Protocol: The gene encoding human FHIT (P49789) was synthesized (Genscript, China) and cloned into pGEX-6P-1 such that the expressed protein would have an N-terminal glutathione S-transferase (GST)-tagged protein. […] Ten million 293 cells overexpressing GFP-tagged FHIT or free GFP were lysed in 0.5 mL M-PER mammalian protein extraction reagent (Thermo Fisher Scientific). […] The fluorescence signal during the thermophoresis was monitored and the change in fluorescence was analyzed by software. […]
measureName: Kd (nM)
Report as a plain number; the unit nM is understood.

Given the compound Cc1c(S(=O)(=O)O)oc2c1C(=O)C(=O)c1c-2ccc2c1CCCC2(C)C [STS, Sodium tanshinone IIA sulfonate] , what is its reported Kd? 1820

// provenance: paper PMC8190080
